For each entry below, report its viability at 10 µM value.
# System: A549
# ASSAY NOTES: Cytotoxic activity against human A549 cells assessed as cell viability at 10 uM incubated for 72 hrs
# Format: functional
# ASSAY CONDITIONS: A549, 72 h, read-out: Activity
A number alone suffices; assume %.

What measured viability at 10 µM goes with CN[C@H]1CO[C@@H](OC[C@H]2O[C@@H](n3c4c(Cl)cccc4c4c5c(c6c7ccccc7[nH]c6c43)C(=O)NC5=O)[C@H](O)[C@@H](O)[C@@H]2OC)C[C@@H]1O ?
19.9

What measured viability at 10 µM goes with CN[C@H]1CO[C@@H](OC[C@H]2O[C@@H](n3c4ccccc4c4c5c(c6c7ccccc7[nH]c6c43)C(=O)N(C)C5=O)[C@H](O)[C@@H](O)[C@@H]2OC)C[C@@H]1O ?
16.6

What measured viability at 10 µM goes with CN[C@H]1CO[C@@H](OC[C@H]2O[C@@H](n3c4c(Cl)cccc4c4c5c(c6c7ccccc7[nH]c6c43)C(=O)N(C)C5=O)[C@H](O)[C@@H](O)[C@@H]2OC)C[C@@H]1O ?
10.5

What measured viability at 10 µM goes with CN1C(=O)c2c(c3c4cccc(Cl)c4[nH]c3c3[nH]c4ccccc4c23)C1=O ?
164

What measured viability at 10 µM goes with CO[C@H]1[C@H](O)[C@@H](O)[C@H](n2c3ccccc3c3c4c(c5c6ccccc6[nH]c5c32)C(=O)N(C)C4=O)O[C@@H]1CO ?
96.6

What measured viability at 10 µM goes with CO[C@H]1[C@H](O)[C@@H](O)[C@H](n2c3c(Cl)cccc3c3c4c(c5c6ccccc6[nH]c5c32)C(=O)N(C)C4=O)O[C@@H]1CO ?
47.4

What measured viability at 10 µM goes with O=C1NC(=O)c2c1c1c3ccccc3[nH]c1c1c2c2ccccc2n1[C@@H]1O[C@H](CO)[C@@H](O)[C@H](O)[C@H]1O ?
32.6
